tested.system: Oxytocin receptor (Homo sapiens, UniProt P30559)
Sequence (P30559 whole entry): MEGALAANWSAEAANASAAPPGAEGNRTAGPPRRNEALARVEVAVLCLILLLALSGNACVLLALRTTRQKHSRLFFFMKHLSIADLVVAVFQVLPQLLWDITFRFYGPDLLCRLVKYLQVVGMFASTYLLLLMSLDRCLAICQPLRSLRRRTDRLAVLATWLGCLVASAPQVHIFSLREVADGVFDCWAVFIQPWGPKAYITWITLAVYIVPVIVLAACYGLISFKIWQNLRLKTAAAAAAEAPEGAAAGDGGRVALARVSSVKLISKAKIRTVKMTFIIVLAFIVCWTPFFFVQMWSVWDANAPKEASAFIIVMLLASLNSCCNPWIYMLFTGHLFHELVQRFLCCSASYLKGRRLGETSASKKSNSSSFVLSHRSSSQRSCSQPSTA
readout: Ki (µM)
Only the number, expressed in µM, is required.

Query COc1ccc2c(c1)c(CC(=O)N1CCCNCC1)c(C)n2S(=O)(=O)c1ccc(OC)c(C)c1C on Oxytocin receptor (Homo sapiens, UniProt P30559); Ki returned: 0.32

----------
tested.system: Vasopressin V1b receptor (Homo sapiens)
protocol: Displacement of [3H]-AVP from human vasopressin V1B receptor expressed in CHO cells
Assay type: cell-based
pKi: −log10 of the molar value.
readout: pKi

COc1ccc(S(=O)(=O)n2c(C)c(C(=O)N3CCCNCC3)c3cc(F)ccc32)c(C)c1C; 6.51

[I] COc1ccc(S(=O)(=O)n2c(C)c(CC(=O)N(C)CCc3ccccn3)c3cc(F)ccc32)c(C)c1C
[II] COc1cc(C)c(S(=O)(=O)N[C@@H](Cc2ccccc2)C(=O)NCCN2CCN(C)CC2)c(C)c1C
Q: Looking at recorded values for pKi, does I or II come in lower? When you have decided, please share the label of that item.
Result: II
(II: 6.30, I: 6.59)

----------
protocol: Solubility of the compound at pH 7.4
Assay type: physicochemical
experimental.setup: buffer
readout: solubility (µg/mL)
Only the number, expressed in µg/mL, is required.

Recorded solubility (compound COc1ccc2c(c1)c(C(=O)N1CCCNCC1)c(C)n2S(=O)(=O)c1ccc(OC)c(C)c1C ): 72

----------
Target sequence: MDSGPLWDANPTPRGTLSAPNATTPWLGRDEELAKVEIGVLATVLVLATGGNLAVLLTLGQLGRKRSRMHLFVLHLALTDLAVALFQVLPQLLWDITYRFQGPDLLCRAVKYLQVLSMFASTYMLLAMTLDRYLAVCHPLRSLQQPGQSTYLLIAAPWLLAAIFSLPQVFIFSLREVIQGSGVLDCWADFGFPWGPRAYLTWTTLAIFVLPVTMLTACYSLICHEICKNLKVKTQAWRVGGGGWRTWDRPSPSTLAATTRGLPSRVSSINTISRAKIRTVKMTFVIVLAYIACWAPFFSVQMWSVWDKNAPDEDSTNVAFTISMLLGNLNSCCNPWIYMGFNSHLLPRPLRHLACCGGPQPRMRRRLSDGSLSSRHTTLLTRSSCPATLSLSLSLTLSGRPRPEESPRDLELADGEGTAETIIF
pKi: −log10 of the molar value.
readout: pKi

Field: example entries. Status: answers known.
COc1cc(C)c(S(=O)(=O)N[C@@H](Cc2ccccc2)C(=O)N(C)CCCN2CCN(C)CC2)c(C)c1C; 6.00
COc1ccc(S(=O)(=O)n2c(C)c(C(=O)N3CCCNCC3)c3cc(C)ccc32)c(C)c1C; 6.10
COc1cc(C)c(S(=O)(=O)N[C@@H](Cc2ccccc2)C(=O)NCCCN(C)C)c(C)c1C; 5.70
COc1ccc(S(=O)(=O)N2CC(C(=O)NCCCN3CCN(C)CC3)c3ccccc32)c(C)c1C (stereo not drawn); 5.92
COc1ccc(S(=O)(=O)n2c(C)c(C(=O)NCCCN3CCN(C)CC3)c3ccccc32)c(C)c1C; 6.25

[P] COc1ccc(S(=O)(=O)n2c(C)c(C(=O)N3CCCN(C)CC3)c3ccccc32)c(C)c1C
[Q] COc1ccc2c(c1)c(C(=O)N1CCCNCC1)c(C)n2S(=O)(=O)c1ccc(OC)c(C)c1C
Q: Looking at recorded values for pKi, does P or Q come in lower? When you have decided, please share the label of that item.
Result: P
(P: 6.30, Q: 6.72)
